Target: mutated (E4Q, A5T) hMCHR1 receptor (Homo sapiens, UniProt Q99705, A5T/E4Q)
Sequence (Q99705 whole entry E4Q/A5T): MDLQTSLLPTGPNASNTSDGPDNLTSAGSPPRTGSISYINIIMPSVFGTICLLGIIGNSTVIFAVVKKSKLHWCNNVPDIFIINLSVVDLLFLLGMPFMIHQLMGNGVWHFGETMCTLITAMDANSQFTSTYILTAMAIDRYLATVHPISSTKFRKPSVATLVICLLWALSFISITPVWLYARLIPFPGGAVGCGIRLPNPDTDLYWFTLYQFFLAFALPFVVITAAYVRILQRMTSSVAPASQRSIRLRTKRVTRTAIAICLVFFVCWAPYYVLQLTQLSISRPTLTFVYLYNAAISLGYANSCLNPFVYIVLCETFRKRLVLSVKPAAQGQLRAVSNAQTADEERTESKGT
Test: Radioligand binding assay for assessment of MCHR1 activity
Conditions: membranes from stably transfected HEK-293 cells; competition with [Phe13,[125I]Tyr19]-MCH, 90 min
pKi: −log10 of the molar value.
Decide using pKi: a value greater than or equal to 8 is Criterion met, a smaller one is Criterion not met.

* COc1cc(-n2nnc3cc(-c4ccc(Cl)cc4)sc3c2=O)ccc1OCCO | Criterion met
* COc1cc(-n2nnc3cc(-c4ccc(Cl)cc4)sc3c2=O)ccc1OCC(C)(C)O | Criterion met
* COc1cc(-n2ncc3cc(-c4ccc(Cl)cc4)sc3c2=O)ccc1OCC(C)(C)O | Criterion met
* COc1cc(-n2nnc3cc(-c4ccc(Cl)cc4)sc3c2=O)ccc1OCC(C)=O | Criterion met
* COc1cc(-n2nnc3cc(-c4ccc(Cl)cc4)sc3c2=O)ccc1OC[C@@H](O)[C@@H](C)O | Criterion met
* COc1cc(-n2nnc3cc(-c4ccc(Cl)cc4)sc3c2=O)ccc1OC[C@H]1OC(C)(C)O[C@@H]1C | Criterion not met
